Biological target: T1, C-terminal human Regnase-1 (amino acids 301 to 599) with N-terminal FLAG tag and C-terminal BirA recognition … (human, UniProt Q5D1E8 301-599)
T1 sequence: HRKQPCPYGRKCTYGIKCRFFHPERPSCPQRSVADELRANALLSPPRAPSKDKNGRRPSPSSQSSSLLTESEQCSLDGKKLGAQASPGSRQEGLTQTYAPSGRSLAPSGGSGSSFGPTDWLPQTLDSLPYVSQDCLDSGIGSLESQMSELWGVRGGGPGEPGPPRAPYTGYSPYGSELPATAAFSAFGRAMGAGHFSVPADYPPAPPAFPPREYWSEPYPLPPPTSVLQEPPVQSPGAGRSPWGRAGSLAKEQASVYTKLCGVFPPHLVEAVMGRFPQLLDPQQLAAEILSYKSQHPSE
Test: cell-based or functional assay
50% inhibition concentration, Regnase-1 phosphorylation by IKKβ (AlphaScreen): recorded values
reportedEndpoint: 50% inhibition concentration, Regnase-1 phosphorylation by IKKβ (AlphaScreen)

binder	result
XKFAQFRWIYPD (HELM PEPTIDE1{[meA].K.F.A.Q.F.R.W.I.Y.P.D.[C1CCN([*:1])C1]}$PEPTIDE1,PEPTIDE1,1:R1-12:R3$$$V2.0; SMILES CC[C@H](C)[C@@H]1NC(=O)[C@H](Cc2c[nH]c3ccccc23)NC(=O)[C@H](CCCNC(=N)N)NC(=O)[C@H](Cc2ccccc2)NC(=O)[C@H](CCC(N)=O)NC(=O)[C@H](C)NC(=O)[C@H](Cc2ccccc2)NC(=O)[C@H](CCCCN)NC(=O)[C@H](C)N(C)C(=O)C[C@@H](C(=O)N2CCCC2)NC(=O)[C@@H]2CCCN2C(=O)[C@H](Cc2ccc(O)cc2)NC1=O) [PP11]	> 62.1 µM
XTSWYKVNWGQD (HELM PEPTIDE1{[meA].T.S.W.Y.K.V.N.W.G.Q.D.[C1CCN([*:1])C1]}$PEPTIDE1,PEPTIDE1,1:R1-12:R3$$$V2.0; SMILES CC(C)[C@@H]1NC(=O)[C@H](CCCCN)NC(=O)[C@H](Cc2ccc(O)cc2)NC(=O)[C@H](Cc2c[nH]c3ccccc23)NC(=O)[C@H](CO)NC(=O)[C@H]([C@@H](C)O)NC(=O)[C@H](C)N(C)C(=O)C[C@@H](C(=O)N2CCCC2)NC(=O)[C@H](CCC(N)=O)NC(=O)CNC(=O)[C@H](Cc2c[nH]c3ccccc23)NC(=O)[C@H](CC(N)=O)NC1=O) [PP1]	> 62.1 µM
